# assay remarks: blood-stage malaria parasite viability loss – strain 3D7, DAPI fluorescence, 100 nL, primary screen (AID 1184);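 further: parasites grown inside human red blood cells in medium with human serum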
# condition notes: P. falciparum 3D7 growth, 3 d, higher = more signal
Give measured z-score for each item. Keep answers brief.
One number for each entry.

The examples below pair each entry with its known result.
Query (compound): CCCCCN1CC=CC23O[C@@H]4C=CCCOC(=O)C4[C@H]2C(=O)N(CCCO)[C@@H]3C1=O (stereo partly drawn) ; field requested: z-score
-1.54

Query (compound): `COc1ccc(C#Cc2ccc3c(c2)[C@]2(C(=O)N3)[C@H](C(=O)N3CCN(c4ncccn4)CC3)[C@H]3C(=O)O[C@H](c4ccccc4)[C@H](c4ccccc4)N3[C@@H]2c2ccc(O)cc2)cc1` ; field requested: z-score
-1.08

Query (compound): O=C1C2C=CC(C(O)C3CC=CCC3)N(n3cnnc3)C2C(=O)N1Cc1ccccc1 (stereo not drawn) ; field requested: z-score
0.017

Query (compound): `Cc1ccc(F)cc1S(=O)(=O)N[C@@H]1CCN(Cc2ccc(C(F)(F)F)cc2)C1` ; field requested: z-score
-0.433

Query (compound): `COC(=O)C(CC#Cc1ccc2c(c1)[C@]1(C(=O)N2)[C@H](C(=O)N2CCCCCCC2)[C@H]2C(=O)O[C@H](c3ccccc3)[C@H](c3ccccc3)N2[C@@H]1c1ccccc1OCCO)C(=O)OC` ; field requested: z-score
-2.21

Query (compound): `C=C(C(=O)CC[C@@H](OC(=O)c1cccnc1)c1ccc(CO)o1)C(C)C` ; field requested: z-score
-0.188

Query (compound): `CN(C)CCCCNC(=O)[C@@H]1C[C@@H]2C(=O)N[C@@H](CCCCN)C(=O)N2[C@@H]1c1cccc(OCCO)c1` ; field requested: z-score
-0.114

Continue with the next compound.
Query (compound): `O=c1cccc(-c2ccccc2)o1` ; field requested: z-score
0.495
